Tested on: Mus musculus
Experiment Notes: Ability to reverse electroconvulsive shock (ECS) induced amnesia in mice, at a dose of 10 mg/Kg administered perorally
Assay type: functional
Output true for records whose Reversal is lower than 50%, false for records at or above 50%.

Decide: Reversal of O=C(CCC1CCC(=O)N1)Nc1ccncc1 (centres undefined) strictly below 50%?
false

Decide: Reversal of O=C(O)CC1CCC(=O)N1 (centres undefined) strictly below 50%?
true

Decide: Reversal of O=C1CCC(CCC(=O)OCc2cccc(Cl)c2)N1 (centres undefined) strictly below 50%?
true

Decide: Reversal of O=C1CCC(CCCC(=O)OCc2ccccc2)N1 (centres undefined) strictly below 50%?
true

Decide: Reversal of NC(=O)CCC1CCC(=O)N1 (centres undefined) strictly below 50%?
true

Decide: Reversal of CC(OC(=O)CCC1CCC(=O)N1)c1ccccc1 (centres undefined) strictly below 50%?
false

Decide: Reversal of Cc1cccc(C)c1NC(=O)CCC1CCC(=O)N1 (centres undefined) strictly below 50%?
false

Decide: Reversal of O=C1CCC(CCC(=O)OCc2ccc(Cl)cc2)N1 (centres undefined) strictly below 50%?
true

Decide: Reversal of O=C(O)CCC1CCCCC(=O)N1 (centres undefined) strictly below 50%?
true

Decide: Reversal of O=C1CCC2SCC(=O)N12 (centres undefined) strictly below 50%?
true

Decide: Reversal of O=C1CCC(CCC(=O)NC23C[C@H]4C[C@@H](C2)C[C@@H](C3)C4)N1 (some centres undefined) strictly below 50%?
true

Decide: Reversal of O=C(CCC1CCC(=O)N1)NCCc1ccc(O)cc1 (centres undefined) strictly below 50%?
true
